Molecular target: T1, human Claudin18.2 (Homo sapiens, UniProt P56856)
T1 construct: expressed in transfected cells
Assay: Cell-based ELISA affinity of humanized antibodies on L929-Claudin18.2 (human) cells
Assay type: binding
Details: L929-Claudin18.2 cells
measurement-type: Affinity detected by cell-based ELISA (EC50, ng/mL) L929-Claudin18.2
One number for each entry, in ng/mL.

[
  {
    "molecule": "2D3A11-HZ2: humanized anti-Claudin18.2 antibody, VH SEQ ID NO: 40, VL SEQ ID NO: 39 (antibody, V domains shown) VH: QVQLVESGAEVKKPGASVKVSCKASGYTFTSYVVHWVRQAPGQGLEWMGYINPYNADSKYSQEFQGRATLTSDKSASTAYMELSSLRSEDMAVYYCSRSYYGNSFDVWGQGTLVTVSS VL: DIVMTQSPDSLAVSLGERATINCKSSQSLLNSGNQKNYLTWYQQKPGQSPKLLFFWASTRQSGVPDRFSGSGSGTDFTLTISSLQAEDVAVYYCQNDYYFPFTFGQGTKVEIK",
    "measurement": 25.62
  }
]

// query Suppose we examine the molecule 25C7A5-HZ1: humanized anti-Claudin18.2 antibody, VH SEQ ID NO: 1, VL SEQ ID NO: 2, human IgG1/Kappa constant regions (antibody, V domains shown, human IgG1/kappa constant regions) VH: QVQLVQSGAEVKKPGSSVKVSCKASGYTFTNYWLHWVRQAPGQGLEWMGMMHPISGSSNYAQKFQGRATLTVDKSTSTAYMELSSLRSEDTAVYYCARGLLSAMDYWGQGTLVTVSS VL: EIVLTQSPATLSLSPGERATLSCKASENVKTYVSWYQQKPGQSPRLLIYEASNRYTGVPARFSGSGSATDFTLTISSLEPEDFAVYFCGQTYSFPPTFGQGTKVEIK ; what Affinity detected by cell-based ELISA (EC50, ng/mL) L929-Claudin18.2 value has been reported?
// result 13.41
